Each recorded value in this set is attributed to BindingDB's records for doi:10.1016/j.bmcl.2012.07.045.

- assayed-target: Tyrosine-protein kinase SYK (Homo sapiens)
- test: Inhibition of human recombinant full-length Syk using poly-GT as substrate after 40 mins by radioactive filtration assay
pIC50 by entry:
Recall that pIC50 is obtained by taking minus log10 of the concentration measured in molar.

Some entries whose results are on file:
Cc1ccnc(Nc2cccc(-c3ccnc(N4CCNCC4)c3)n2)c1 = 7.85
O=C(Nc1cc(Nc2cnccn2)nc(-c2ccnc(N3CCNCC3)c2)c1)c1cccnc1 = 8.22
O=C(O)c1ccc(C(=O)Nc2cc(Nc3cnccn3)nc(-c3ccnc(N4CCNCC4)c3)c2)cc1 = 8.10

The record that follows has no pIC50 shown yet.
Q: Please tell me the measured pIC50 for `O=C(Nc1cc(Nc2cnccn2)nc(-c2ccnc(N3CCNCC3)c2)c1)c1cncnc1` ; system: Tyrosine-protein kinase SYK (Homo sapiens).
A: 8.05
